List of refractive index values.
- Protocol details: refractive index (Na D-line) (dimensionless)
- Recorded conditions: 333.15 K; 101.33 kPa; Liquid; Standard Abbe refractometry
Answer with a bare number; do not write a unit.

Please review the following examples before continuing.
Lookup: I have this molecule here, CCCCn1cc[n+](C)c1.F[P-](F)(F)(F)(F)F [1-butyl-3-methylimidazolium hexafluorophosphate] , and I need its recorded refractive index.
Found: 1.4004

Lookup: Which refractive index is listed for CCCCCC[n+]1ccn(C)c1.O=S(=O)([N-]S(=O)(=O)C(F)(F)F)C(F)(F)F ?
Found: 1.4205

Lookup: Record request: refractive index value, item CCCCCCCCCCCCCC[P+](CCCCCC)(CCCCCC)CCCCCC.O=S(=O)([N-]S(=O)(=O)C(F)(F)F)C(F)(F)F
Found: 1.43858

Next:
Lookup: Sample CCCCCCCCCCn1cc[n+](C)c1.O=S(=O)([N-]S(=O)(=O)C(F)(F)F)C(F)(F)F — what was its refractive index?
Found: 1.42452

Lookup: Can you share its refractive index? I mean this molecule: CCCCn1cc[n+](C)c1.O=S(=O)([O-])C(F)(F)F [1-butyl-3-methylimidazolium trifluoromethanesulfonate]
Found: 1.42552

Lookup: // returns reported refractive index for input CCCCCCCCn1cc[n+](C)c1.O=S(=O)([N-]S(=O)(=O)C(F)(F)F)C(F)(F)F
Found: 1.42251

Lookup: Field request: refractive index | item: CCCCn1cc[n+](C)c1.F[B-](F)(F)F [1-butyl-3-methylimidazolium tetrafluoroborate]
Found: 1.41246

Lookup: Which refractive index is listed for CCCCCCCCCCCCCC[P+](CCCCCC)(CCCCCC)CCCCCC.O=S(=O)([O-])C(F)(F)F ?
Found: 1.44662

Lookup: Sample CCCC[n+]1ccn(C)c1.O=S(=O)([N-]S(=O)(=O)C(F)(F)F)C(F)(F)F — what was its refractive index?
Found: 1.41648

###

- Recorded conditions: 333.15 K; 101.33 kPa; Liquid; Vibrating tube method
mass density: recorded values
Please give a number only; it is taken to be in kg/m3.

Lookup: Requested field: mass density. Item: CCCCCCCCCCCCn1cc[n+](C)c1.O=S(=O)([N-]S(=O)(=O)C(F)(F)F)C(F)(F)F
Found: 1215.1

Lookup: Name the reported mass density value associated with the compound CCCCn1cc[n+](C)c1.COS(=O)(=O)[O-] [1-butyl-3-methylimidazolium methyl sulfate]
Found: 1188.4

Lookup: Which mass density reading was recorded for the compound CCCC[n+]1ccn(C)c1.O=S(=O)([N-]S(=O)(=O)C(F)(F)F)C(F)(F)F ?
Found: 1402.6

Lookup: What value of mass density has been reported for the following compound? CCCCCCCCn1cc[n+](C)c1.O=S(=O)([N-]S(=O)(=O)C(F)(F)F)C(F)(F)F
Found: 1288

Lookup: Query (compound): CCCCn1cc[n+](C)c1.F[P-](F)(F)(F)(F)F [1-butyl-3-methylimidazolium hexafluorophosphate] ; field requested: mass density
Found: 1334.9

More entries:
Lookup: Recorded mass density of CC(=O)[O-].CCCCn1cc[n+](C)c1 [1-butyl-3-methylimidazolium acetate] , please.
Found: 1032.2

Lookup: Endpoint output: mass density of CCCCn1cc[n+](C)c1.O=S(=O)([O-])C(F)(F)F [1-butyl-3-methylimidazolium trifluoromethanesulfonate] . Value?
Found: 1272.1

Lookup: For CCCCCCCCCCn1cc[n+](C)c1.O=S(=O)([N-]S(=O)(=O)C(F)(F)F)C(F)(F)F , what is its reported mass density?
Found: 1248.2

###

A collection of compounds and their measured mass density
- Recorded conditions: 293.15 K; 101.33 kPa; Liquid; Vibrating tube method
API: value field is a number in kg/m3; no unit string.

Take a look at these entries with their results.
Lookup: Item CCCCCCCC[n+]1ccn(C)c1.F[P-](F)(F)(F)(F)F [1-octyl-3-methylimidazolium hexafluorophosphate] has what recorded mass density?
Found: 1237.8

Lookup: Param item = CCCCn1cc[n+](C)c1.O=S(=O)([O-])C(F)(F)F [1-butyl-3-methylimidazolium trifluoromethanesulfonate] ; retrieve measured mass density.
Found: 1303.5

Lookup: Fill in the blank: the reported mass density of CCCCCCCCCCCCCC[P+](CCCCCC)(CCCCCC)CCCCCC.O=S(=O)([O-])C(F)(F)F is ____.
Found: 985.6

Lookup: // returns reported mass density for input CCCCCCCCn1cc[n+](C)c1.O=S(=O)([N-]S(=O)(=O)C(F)(F)F)C(F)(F)F
Found: 1323.4

Lookup: mass density lookup needed for CCCCCCn1cc[n+](C)c1.F[P-](F)(F)(F)(F)F [1-hexyl-3-methylimidazolium hexafluorophosphate] , thanks.
Found: 1296.4

More entries:
Lookup: Entry CCCCn1cc[n+](C)c1.F[P-](F)(F)(F)(F)F [1-butyl-3-methylimidazolium hexafluorophosphate] has what mass density?
Found: 1367.9

Lookup: Which mass density reading was recorded for the compound CCCCCCCCCCCCn1cc[n+](C)c1.O=S(=O)([N-]S(=O)(=O)C(F)(F)F)C(F)(F)F ?
Found: 1249

###

- Protocol details: refractive index (Na D-line) (dimensionless)
- Recorded conditions: 313.15 K; 101.33 kPa; Liquid; Standard Abbe refractometry
Assay endpoint: refractive index
Lab note: record just the number, no unit beside it.

As a guide, the following entries are already answered.
Lookup: Would you mind telling me what refractive index value was observed for CCCCCCCCCCCCn1cc[n+](C)c1.O=S(=O)([N-]S(=O)(=O)C(F)(F)F)C(F)(F)F ?
Found: 1.43356

Lookup: I am curious: what refractive index value has been reported for CCCCCCCCCCCCCC[P+](CCCCCC)(CCCCCC)CCCCCC.O=S(=O)([O-])C(F)(F)F ?
Found: 1.45365

Lookup: Sample CCCC[n+]1ccn(C)c1.O=S(=O)([N-]S(=O)(=O)C(F)(F)F)C(F)(F)F — what was its refractive index?
Found: 1.42251

Lookup: Entry CCCCCCCCCCCCCC[P+](CCCCCC)(CCCCCC)CCCCCC.O=S(=O)([N-]S(=O)(=O)C(F)(F)F)C(F)(F)F has what refractive index?
Found: 1.44561

Lookup: Give the measured refractive index of CCCCCCCCCCCCCCn1cc[n+](C)c1.O=S(=O)([N-]S(=O)(=O)C(F)(F)F)C(F)(F)F .
Found: 1.43456

***
Lookup: Field request: refractive index | item: CCCCCCCCCCn1cc[n+](C)c1.O=S(=O)([N-]S(=O)(=O)C(F)(F)F)C(F)(F)F
Found: 1.43055

Lookup: State the recorded refractive index for this entry: CCCCCC[n+]1ccn(C)c1.O=S(=O)([N-]S(=O)(=O)C(F)(F)F)C(F)(F)F
Found: 1.42552

Lookup: Item under review: CCCCCCn1cc[n+](C)c1.F[P-](F)(F)(F)(F)F [1-hexyl-3-methylimidazolium hexafluorophosphate] . Reported refractive index?
Found: 1.41346

###

- Recorded conditions: 313.15 K; 101.33 kPa; Liquid; Vibrating tube method
Assay endpoint: mass density (kg/m3)
Value expressed in kg/m3; do not type the unit.

For orientation, consider the following solved cases.
Lookup: Item CCCCCCn1cc[n+](C)c1.F[P-](F)(F)(F)(F)F [1-hexyl-3-methylimidazolium hexafluorophosphate] has what recorded mass density?
Found: 1280.4

Lookup: Requested read-out: mass density. Entry: CCCCn1cc[n+](C)c1.COS(=O)(=O)[O-] [1-butyl-3-methylimidazolium methyl sulfate]
Found: 1201.5

Lookup: What value of mass density has been reported for the following compound? CCCCn1cc[n+](C)c1.F[P-](F)(F)(F)(F)F [1-butyl-3-methylimidazolium hexafluorophosphate]
Found: 1351.3

Lookup: What value of mass density has been reported for the following compound? CCCCn1cc[n+](C)c1.O=S(=O)([O-])C(F)(F)F [1-butyl-3-methylimidazolium trifluoromethanesulfonate]
Found: 1287.7

Lookup: Entry CCCCCCCCCCCCCCn1cc[n+](C)c1.O=S(=O)([N-]S(=O)(=O)C(F)(F)F)C(F)(F)F : reported mass density = ?
Found: 1200.6

Lookup: What value of mass density has been recorded for this entry: CCn1cc[n+](C)c1.O=S(=O)([N-]S(=O)(=O)C(F)(F)F)C(F)(F)F
Found: 1499.6

Lookup: Which mass density is listed for CC(=O)[O-].CCCCn1cc[n+](C)c1 [1-butyl-3-methylimidazolium acetate] ?
Found: 1044

Lookup: Suppose we examine the compound CCCCCCCCCCCCn1cc[n+](C)c1.O=S(=O)([N-]S(=O)(=O)C(F)(F)F)C(F)(F)F ; what mass density value has been reported?
Found: 1231.8

Others:
Lookup: What value of mass density has been recorded for this entry: CCCCn1cc[n+](C)c1.F[B-](F)(F)F [1-butyl-3-methylimidazolium tetrafluoroborate]
Found: 1188.7

Lookup: For CCCCCC[n+]1ccn(C)c1.O=S(=O)([N-]S(=O)(=O)C(F)(F)F)C(F)(F)F , what is its reported mass density?
Found: 1357.2

Lookup: Entry CCCCCCCC[n+]1ccn(C)c1.F[P-](F)(F)(F)(F)F [1-octyl-3-methylimidazolium hexafluorophosphate] has what mass density?
Found: 1222.4

Lookup: What does the record list as mass density for CC(=O)[O-].CCCCCCCCCCCCCC[P+](CCCCCC)(CCCCCC)CCCCCC [trihexyl(tetradecyl)phosphonium acetate] ?
Found: 882.3

Lookup: Item under review: CCCCCCCCn1cc[n+](C)c1.O=S(=O)([N-]S(=O)(=O)C(F)(F)F)C(F)(F)F . Reported mass density?
Found: 1305.5
